All values here come from PubChem BioAssay AID1159580.

METHOD_DESCRIPTION: chemical genetic growth profiling, strain panel (AID 1159580);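 also: tested at 20 µM; growth read once vehicle control cultures reached saturation at 30 °C; 1 = growth at the plate median or of vehicle wells; lower values mean less growth of the strain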
TEST_CONTEXT: S. cerevisiae deletion strains, growth OD, locus YJR066W, strain TOR1
About 2,000 (36%) of roughly 5,500 compounds were called active. Inconclusive results (about 18%) are left out. Rule as the data show it: active = normalized growth mostly below about 0.91 (no sharp cut-off); inconclusive = no clear call, values can overlap the other calls; inactive = mostly above about 0.92. This is one part of the list.
Classes used: yes (1) for active, no (0) for inactive

>  <COMPOUND>
Cc1c(C)c(C)c(CSC(N)=Nc2ccc(F)cc2)c(C)c1C

>  <ASSIGNED_CLASS>
no (0)

$$$$
>  <COMPOUND>
COc1ccc(C(=O)CSC2=NCCc3ccccc32)cc1

>  <ASSIGNED_CLASS>
no (0)

$$$$
>  <COMPOUND>
C=CCC1(C(C)CCC)C(=O)N=C(S)NC1=O (stereo not drawn)

>  <ASSIGNED_CLASS>
no (0)

$$$$
>  <COMPOUND>
CCCC(C)C1(CC)C(=O)NC(=O)NC1=O (stereo not drawn)

>  <ASSIGNED_CLASS>
no (0)

$$$$
>  <COMPOUND>
NC(=Nc1ccc(F)cc1)SCc1c(Cl)cccc1Cl

>  <ASSIGNED_CLASS>
no (0)

$$$$
>  <COMPOUND>
CCCC1O[C@@H]2CC3C4CCC5=CC(=O)C=CC5(C)C4[C@@H](O)CC3(C)[C@]2(C(=O)CO)O1 (stereo partly drawn)

>  <ASSIGNED_CLASS>
no (0)

$$$$
>  <COMPOUND>
O=C1C=CC2=C3c4cc(O)c(O)cc4CC3(O)COC2=C1O (stereo not drawn)

>  <ASSIGNED_CLASS>
no (0)

$$$$
>  <COMPOUND>
Nc1ccc(S(=O)(=O)Nc2ccccn2)cc1

>  <ASSIGNED_CLASS>
no (0)

$$$$
>  <COMPOUND>
O=C1C=CC2=C3c4cc(O)c(O)cc4C[C@@]3(O)COC2=C1

>  <ASSIGNED_CLASS>
no (0)

$$$$
>  <COMPOUND>
CC(C)c1ccc(NC(=S)NC(=O)c2ccccc2)cc1

>  <ASSIGNED_CLASS>
no (0)

$$$$
>  <COMPOUND>
C=CCOc1ccc(/C=C/[N+](=O)[O-])cc1

>  <ASSIGNED_CLASS>
yes (1)

$$$$
>  <COMPOUND>
C1CNCCN1

>  <ASSIGNED_CLASS>
no (0)

$$$$
>  <COMPOUND>
O=[N+]([O-])/C=C/c1ccsc1

>  <ASSIGNED_CLASS>
yes (1)

$$$$

----------
METHOD_DESCRIPTION: chemical genetic growth profiling, strain panel (AID 1159580);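 also: tested at 20 µM; growth read once vehicle control cultures reached saturation at 30 °C; 1 = growth at the plate median or of vehicle wells; lower values mean less growth of the strain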
TEST_CONTEXT: S. cerevisiae deletion strains, growth OD, locus YHR200W, strain rpn10, hits give low values
Screen size: about 5,500 compounds; about 2,000 (36%) were called active. About 18% were inconclusive and are not listed. This is one part of the list.
METRIC: normalized growth

>  <MOLECULE>
CC(C)NCC(O)c1ccc2ccccc2c1 (stereo not given)

>  <RESULT_NUMBER>
0.994

$$$$
>  <MOLECULE>
O=C(O)/C=C/C=C/c1ccccc1

>  <RESULT_NUMBER>
0.949

$$$$
>  <MOLECULE>
Nc1ccc(S(=O)(=O)Nc2ccc(Cl)nn2)cc1

>  <RESULT_NUMBER>
1

$$$$
>  <MOLECULE>
C=C(C)[C@H]1CC=C(C(=O)O)CC1

>  <RESULT_NUMBER>
0.961

$$$$
>  <MOLECULE>
C/C=C/c1ccc2c(c1)OCO2

>  <RESULT_NUMBER>
1.01

$$$$
>  <MOLECULE>
CC1(C)C(O)CC(O)C2(C)C1CC(O)C1(C)C2CCC2(C)C(c3ccoc3)CC3OC321 (stereo not given)

>  <RESULT_NUMBER>
1

$$$$
>  <MOLECULE>
CC1(C)C(=O)C=C[C@@]2(C)C1=C(O)C(=O)[C@]1(C)C2CC[C@@]2(C)[C@H](c3ccoc3)C[C@H]3O[C@]321 (stereo not given in full)

>  <RESULT_NUMBER>
0.951

$$$$
>  <MOLECULE>
Nc1ccc(C(=O)NCC(=O)O)cc1

>  <RESULT_NUMBER>
1.02

$$$$
>  <MOLECULE>
NCCCC[C@H](N[C@@H](CCc1ccccc1)C(=O)O)C(=O)N1CCC[C@H]1C(=O)O

>  <RESULT_NUMBER>
1

$$$$
>  <MOLECULE>
CC(=O)O[C@@H]1C[C@@]2(C)[C@H](c3ccoc3)C[C@H]3O[C@]32[C@]2(C)C(=O)C(O)=C3C(C)(C)C(=O)C=C[C@]3(C)C12 (stereo not given in full)

>  <RESULT_NUMBER>
0.943

$$$$
>  <MOLECULE>
C[C@H]1[C@H]2CCC3C4CC=C5C[C@@H](N(C)C)CC[C@]5(C)C4CC[C@@]32CN1C (stereo not given in full)

>  <RESULT_NUMBER>
0.986

$$$$
>  <MOLECULE>
CC1(C)C(=O)C=CC2(C)C3CCC4(C)C(c5ccoc5)CC5OC54C3C(O)CC12 (stereo not given)

>  <RESULT_NUMBER>
0.993

$$$$
>  <MOLECULE>
CC(C)N(C(=O)SCC(Cl)=C(Cl)Cl)C(C)C

>  <RESULT_NUMBER>
1

$$$$
>  <MOLECULE>
CN/C(=C\[N+](=O)[O-])NCCSCc1ccc(CN(C)C)o1

>  <RESULT_NUMBER>
0.984

$$$$
>  <MOLECULE>
CC1(C)C(C(Cl)Cl)C2(Cl)C(Cl)C(Cl)C1(Cl)C2(Cl)Cl (stereo not given)

>  <RESULT_NUMBER>
0.977

$$$$
>  <MOLECULE>
C=C[C@@H](C1=CC(=O)C(OC)=C(OC)C1=O)c1ccccc1

>  <RESULT_NUMBER>
0.788

$$$$
>  <MOLECULE>
Nc1ccc(S(=O)(=O)Nc2ccccn2)cc1

>  <RESULT_NUMBER>
0.986

$$$$
>  <MOLECULE>
COC(=O)Oc1ccccc1C(=O)O

>  <RESULT_NUMBER>
1.02

$$$$
>  <MOLECULE>
CC(=O)O[C@@H]1CC2C(C)(C)C=CC(=O)[C@]2(C)C2CC[C@@]3(C)[C@H](c4ccoc4)OC(=O)C4OC43[C@@]21C (stereo not given in full)

>  <RESULT_NUMBER>
0.998

$$$$
>  <MOLECULE>
C=CC(C1=CC(=O)C(OC)=CC1=O)c1ccc(OC)cc1 (stereo not given)

>  <RESULT_NUMBER>
0.907

$$$$
>  <MOLECULE>
O=C(O)c1ccccc1Nc1cccc(C(F)(F)F)c1

>  <RESULT_NUMBER>
0.95

$$$$
>  <MOLECULE>
COc1ccccc1OCCNCC(O)COc1cccc2[nH]c3ccccc3c12 (stereo not given)

>  <RESULT_NUMBER>
1.02

$$$$
>  <MOLECULE>
CCN(CC)CCOc1ccc2c(c1)C(=O)c1cc(OCCN(CC)CC)ccc1-2

>  <RESULT_NUMBER>
0.98

$$$$
>  <MOLECULE>
CNc1ccccc1C(=O)O

>  <RESULT_NUMBER>
1.01

$$$$
>  <MOLECULE>
c1ccc2c(c1)cc1ccc3cccc4ccc2c1c34

>  <RESULT_NUMBER>
0.998

$$$$

----------
METHOD_DESCRIPTION: chemical genetic growth profiling, strain panel (AID 1159580);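 also: tested at 20 µM; growth read once vehicle control cultures reached saturation at 30 °C; 1 = growth at the plate median or of vehicle wells; lower values mean less growth of the strain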
TEST_CONTEXT: S. cerevisiae deletion strains, growth OD, locus YER133W, strain GLC7, hits give low values
Hit rate of the full screen: of about 5,500 compounds, about 2,000 (36%) were called active. Not shown: some 18% with an inconclusive outcome. The list shows a part of the results.
This listing pairs compounds with measured normalized growth.

>  <GIVEN_SMILES>
CSc1ccc(/C=C(\C)[N+](=O)[O-])cc1

>  <normalized growth>
0.0958

$$$$
>  <GIVEN_SMILES>
O=C(Nc1ccc(C(F)(F)F)cc1)N1CCN(c2ccnc3cc(Cl)ccc23)CC1

>  <normalized growth>
1.01

$$$$
>  <GIVEN_SMILES>
FC(F)(F)c1cccc(NC(=S)Nc2ccccc2)c1

>  <normalized growth>
0.958

$$$$
>  <GIVEN_SMILES>
CCOc1ccc(/C=C(\C)[N+](=O)[O-])cc1OC

>  <normalized growth>
0.482

$$$$
>  <GIVEN_SMILES>
O=C(c1ccc2ccccc2c1)N1CCN(c2ccnc3cc(Cl)ccc23)CC1

>  <normalized growth>
0.965

$$$$
>  <GIVEN_SMILES>
Fc1cccc(F)c1NC(=S)Nc1cc(C(F)(F)F)cc(C(F)(F)F)c1

>  <normalized growth>
0.933

$$$$
